B1: STEAP1 (parent)
chain: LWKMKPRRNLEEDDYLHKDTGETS

Variants of: B1
Test: protein stability index of a GFP-peptide fusion (GPS, HEK-293T) (PSI 1-6); higher = more stable;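 further: lentivirally expressed fusions sorted by FACS into six bins by GFP to DsRed ratio, PSI derived from sequencing read proportions per bin multiplied by bin number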
Settings: c terminus: a fixed tail appended
Cut-off 4 on protein stability index, inclusive. At or above means condition met; below means condition not met.

*Q* Check if protein stability index >= 4 (inclusive). Item: L1T
*A* condition met

*Q* Check if protein stability index >= 4 (inclusive). Item: R8K
*A* condition met

*Q* Check if protein stability index >= 4 (inclusive). Item: P6S
*A* condition met

*Q* Check if protein stability index >= 4 (inclusive). Item: D14W
*A* condition not met

*Q* Check if protein stability index >= 4 (inclusive). Item: Y15C
*A* condition met

Next:
*Q* Check if protein stability index >= 4 (inclusive). Item: P6E
*A* condition met
